Test system: TLR7 (Homo sapiens, UniProt Q9NYK1)
Sequence (Q9NYK1 27-1049): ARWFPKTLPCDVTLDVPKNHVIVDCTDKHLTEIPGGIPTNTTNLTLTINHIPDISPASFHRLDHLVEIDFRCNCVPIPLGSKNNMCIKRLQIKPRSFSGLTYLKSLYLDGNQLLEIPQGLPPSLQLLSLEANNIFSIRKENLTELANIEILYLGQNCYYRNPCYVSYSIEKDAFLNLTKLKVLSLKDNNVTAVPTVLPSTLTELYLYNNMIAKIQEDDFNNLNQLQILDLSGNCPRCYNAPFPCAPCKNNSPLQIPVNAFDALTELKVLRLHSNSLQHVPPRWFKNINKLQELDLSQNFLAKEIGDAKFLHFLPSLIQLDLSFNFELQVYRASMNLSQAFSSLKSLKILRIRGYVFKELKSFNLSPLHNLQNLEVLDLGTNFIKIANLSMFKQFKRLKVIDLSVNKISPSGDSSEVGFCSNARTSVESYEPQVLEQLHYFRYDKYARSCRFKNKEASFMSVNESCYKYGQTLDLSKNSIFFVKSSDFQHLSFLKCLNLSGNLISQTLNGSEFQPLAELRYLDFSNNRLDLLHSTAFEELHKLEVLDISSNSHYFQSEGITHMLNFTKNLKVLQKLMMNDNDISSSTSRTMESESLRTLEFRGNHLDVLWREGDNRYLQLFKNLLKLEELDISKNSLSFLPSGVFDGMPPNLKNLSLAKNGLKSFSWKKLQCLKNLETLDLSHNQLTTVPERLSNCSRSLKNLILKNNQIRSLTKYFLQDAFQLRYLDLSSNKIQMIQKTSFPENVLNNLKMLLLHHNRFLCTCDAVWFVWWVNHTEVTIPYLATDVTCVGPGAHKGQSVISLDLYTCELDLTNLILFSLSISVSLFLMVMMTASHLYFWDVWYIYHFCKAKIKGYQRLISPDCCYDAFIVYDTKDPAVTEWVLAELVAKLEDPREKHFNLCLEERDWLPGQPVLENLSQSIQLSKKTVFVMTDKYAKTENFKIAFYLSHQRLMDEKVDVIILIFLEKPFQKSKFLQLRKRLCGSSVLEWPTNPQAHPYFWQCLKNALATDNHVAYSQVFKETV
Run description: HEK/293 TLR7 Cell Assay
Run conditions: TLR7/NFKb HEK cells, R848 agonist 10 uM final concentration, Steady-Glo readout; read-out: TLR7 potency
Quantity kind: IC50

Please fill in: IC50 reported for Cc1c(F)cc(N2C[C@@H](C)O[C@@H](C(=O)N[C@H]3CNC[C@H]3F)C2)c2cccnc12 [Example 298] = < 75 nM

Please fill in: IC50 reported for C[C@H]1C[C@@H](NCCNS(N)(=O)=O)CN(c2ccc(C(F)(F)F)c3ncccc23)C1 [Example 19] = 75 to 150 nM

Please fill in: IC50 reported for CCN1CCN(C[C@H]2CN(c3cnc(C#N)c4ncccc34)C[C@@H](C)O2)CC1 [Example 371] = > 150 nM

Please fill in: IC50 reported for CN1CCC(F)(CNC(=O)[C@@H]2CN(c3ccc(C#N)c4nccnc34)C[C@H](C(F)(F)F)O2)CC1 (single isomer, unassigned) [Example 360] = < 75 nM

Please fill in: IC50 reported for COc1ncc(N2C[C@@H](C)C[C@@H](N)C2)c2cccnc12 [Example 151] = < 75 nM

Please fill in: IC50 reported for C[C@H]1C[C@@H](NC(=O)CCn2ccnc2)CN(c2ccc(C#N)c3nccnc23)C1 [Example 193] = < 75 nM

Please fill in: IC50 reported for CN(C)CCNC(=O)N[C@@H]1C[C@H](C(F)(F)F)CN(c2ccc(C#N)c3nccnc23)C1 [Example 139] = 75 to 150 nM

Please fill in: IC50 reported for C[C@@H]1CN(c2cnc(C#N)c3ncccc23)C[C@H](CN2CCNC(=O)C2)O1 [Example 379] = > 150 nM

----------
Test system: TLR7 (Homo sapiens)
Run description: HEK/293 TLR7 Cell Assay
Run conditions: TLR7/NFKb HEK cells, R848 agonist 10 uM final concentration, Steady-Glo readout; read-out: TLR7 potency
Quantity kind: IC50

Please fill in: IC50 reported for `C[C@H]1C[C@@H](NC(=O)[C@@](C)(N)CO)CN(c2ccc(C(F)(F)F)c3ncccc23)C1` = > 150 nM

Please fill in: IC50 reported for `C[C@H]1C[C@@H](n2ccnc2)CN(c2ccc(C#N)c3ncccc23)C1` = > 150 nM

Please fill in: IC50 reported for `C[C@@H]1CN(c2ccc(C(F)(F)F)c3ncccc23)C[C@H](CN2CCC(N3CCCC3)CC2)O1` = < 75 nM

Please fill in: IC50 reported for C[C@H]1C[C@@H](NCC(C)(F)C(=O)O)CN(c2ccc(C#N)c3nccnc23)C1 (stereo partly shown) = < 75 nM

----------
Test system: UniProt:Q9NR97
Run description: HEK/293 TLR8 Cell Assay
Run conditions: HEK cells, R848 agonist 30 uM final concentration, Steady-Glo readout; read-out: TLR8 potency
pIC50: −log10 of the molar value.
Kindly state pIC50 for each of the entries shown.

Reported UniProt:Q9NR97 pIC50 for item C[C@@H]1CN(c2ccc(C#N)c3nccnc23)C[C@H](C(=O)NCC2CN(C)CCO2)O1 (stereo partly drawn) was > 7.12

Reported UniProt:Q9NR97 pIC50 for item C[C@H]1C[C@@H](NCC2CCC(=O)N2)CN(c2ccc(C(F)(F)F)c3nccnc23)C1 (stereo partly drawn) was > 7.12

Reported UniProt:Q9NR97 pIC50 for item N#Cc1ncc(N2C[C@@H](C(F)(F)F)O[C@@H](C(=O)NC[C@]3(F)CCNC3)C2)c2cccnc12 (single isomer, unassigned) was < 6.82

Reported UniProt:Q9NR97 pIC50 for item `CN1CCC(O)(CC(=O)N[C@@H]2C[C@H](C(F)(F)F)CN(c3ccc(C(F)(F)F)c4nccnc34)C2)CC1` was > 7.12

Reported UniProt:Q9NR97 pIC50 for item C[C@H]1C[C@@H](OCCN2CCN(C)CC2)CN(c2ccc(C(F)(F)F)c3ncccc23)C1 (racemic) was > 7.12

Reported UniProt:Q9NR97 pIC50 for item `CN(C)CCC(=O)N[C@@H]1C[C@H](C(F)(F)F)CN(c2ccc(C(F)(F)F)c3ncccc23)C1` was > 7.12

Reported UniProt:Q9NR97 pIC50 for item `CC(=O)NCCNC[C@H]1CN(c2cnc(C#N)c3ncccc23)C[C@@H](C)O1` was < 6.82

Reported UniProt:Q9NR97 pIC50 for item `N#Cc1ccc(N2C[C@H](NC(=O)[C@H]3CCCN3)C[C@H](C(F)(F)F)C2)c2cccnc12` was < 6.82

Reported UniProt:Q9NR97 pIC50 for item N#Cc1ccc(N2C[C@H](NC(=O)C3CCCCN3)C[C@H](C(F)(F)F)C2)c2cccnc12 (stereo partly drawn) was 6.82 to 7.12

Reported UniProt:Q9NR97 pIC50 for item C[C@@H]1CN(c2ccc(C#N)c3nccnc23)C[C@H](C(=O)NC[C@@H]2COCCN2)O1 (single isomer, unassigned) was > 7.12

Reported UniProt:Q9NR97 pIC50 for item `Cc1ccc(N2C[C@@H](C)C[C@@H](NC(=O)[C@@H]3CCCN3)C2)c2cccnc12` was > 7.12

Reported UniProt:Q9NR97 pIC50 for item N#Cc1ccc(N2C[C@H](CN3CCC4(CC3)CC(=O)N4)O[C@H](C(F)(F)F)C2)c2nccnc12 (single isomer, unassigned) was < 6.82

Reported UniProt:Q9NR97 pIC50 for item `C[C@H]1C[C@@H](NC(=O)[C@@](C)(N)CO)CN(c2ccc(C(F)(F)F)c3ncccc23)C1` was > 7.12

Reported UniProt:Q9NR97 pIC50 for item `CNC(=O)CCN[C@@H]1C[C@H](C)CN(c2ccc(C(F)(F)F)c3ncccc23)C1` was > 7.12

Reported UniProt:Q9NR97 pIC50 for item N#Cc1ccc(N2C[C@H](NC(=O)CC3CCNCC3F)C[C@H](C(F)(F)F)C2)c2cccnc12 (stereo partly drawn) was > 7.12

----------
Test system: TLR8 (Homo sapiens, UniProt Q9NR97)
Sequence (Q9NR97 27-1041): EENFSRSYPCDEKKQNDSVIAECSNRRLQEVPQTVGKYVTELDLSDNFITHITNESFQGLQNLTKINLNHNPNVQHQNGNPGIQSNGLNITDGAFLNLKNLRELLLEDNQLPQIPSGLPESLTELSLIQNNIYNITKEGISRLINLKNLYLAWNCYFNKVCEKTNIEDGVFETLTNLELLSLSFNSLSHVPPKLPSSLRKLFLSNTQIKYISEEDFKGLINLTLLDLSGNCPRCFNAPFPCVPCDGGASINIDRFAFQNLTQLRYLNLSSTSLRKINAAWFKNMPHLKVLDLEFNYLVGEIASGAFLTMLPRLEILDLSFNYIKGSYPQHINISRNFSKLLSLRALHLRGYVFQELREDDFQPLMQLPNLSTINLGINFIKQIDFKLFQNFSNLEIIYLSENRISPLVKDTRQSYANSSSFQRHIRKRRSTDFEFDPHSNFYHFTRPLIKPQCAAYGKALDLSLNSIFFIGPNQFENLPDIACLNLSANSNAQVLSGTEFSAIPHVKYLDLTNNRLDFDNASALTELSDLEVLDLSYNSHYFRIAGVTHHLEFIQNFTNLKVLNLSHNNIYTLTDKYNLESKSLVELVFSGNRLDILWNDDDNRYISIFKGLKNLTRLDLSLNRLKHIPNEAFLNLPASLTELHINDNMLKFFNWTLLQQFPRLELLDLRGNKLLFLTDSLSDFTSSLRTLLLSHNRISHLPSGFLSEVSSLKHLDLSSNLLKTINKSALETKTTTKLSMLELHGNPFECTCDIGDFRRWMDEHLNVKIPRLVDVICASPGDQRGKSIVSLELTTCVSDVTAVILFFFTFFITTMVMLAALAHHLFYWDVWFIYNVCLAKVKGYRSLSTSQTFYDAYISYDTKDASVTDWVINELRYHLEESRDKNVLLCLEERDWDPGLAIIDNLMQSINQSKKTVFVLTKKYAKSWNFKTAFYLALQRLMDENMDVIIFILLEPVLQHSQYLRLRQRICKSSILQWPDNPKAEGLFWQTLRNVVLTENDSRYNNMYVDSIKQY
Run description: HEK/293 TLR8 Cell Assay
Run conditions: HEK cells, R848 agonist 30 uM final concentration, Steady-Glo readout; read-out: TLR8 potency
pIC50: −log10 of the molar value.
Quantity kind: pIC50

Please fill in: pIC50 reported for C[C@H]1C[C@@H](NC(=O)C2(F)CCNC2)CN(c2ccc(C(F)(F)F)c3ncccc23)C1 (stereo partly drawn) = > 7.12

Please fill in: pIC50 reported for C[C@@H]1CN(c2ccc(C#N)c3nccnc23)C[C@H](C(=O)NCC2(F)CCNC2)O1 (stereo partly drawn) = > 7.12

Please fill in: pIC50 reported for `CN(C)CCC(=O)N[C@@H]1C[C@H](C(F)(F)F)CN(c2ccc(C#N)c3ncccc23)C1` = > 7.12

Please fill in: pIC50 reported for CN1CCC(F)(CNC(=O)[C@@H]2CN(c3ccc(C#N)c4nccnc34)C[C@H](C(F)(F)F)O2)CC1 (single isomer, unassigned) = > 7.12

Please fill in: pIC50 reported for `CC(=O)N1CCC(NC[C@H]2CN(c3cnc(C#N)c4ncccc34)C[C@@H](C)O2)CC1` = < 6.82

Please fill in: pIC50 reported for `C[C@@H]1CN(c2ccc(C#N)c3nccnc23)C[C@H](C(=O)NCCC2CS(=O)(=O)C2)O1` = < 6.82

Please fill in: pIC50 reported for `C[C@@H]1CN(c2ccc(C#N)c3nccnc23)C[C@H](C(=O)NCC2(F)CNC2)O1` = > 7.12

Please fill in: pIC50 reported for C[C@H]1C[C@@H](NCC2CCS(=O)(=O)C2)CN(c2ccc(C#N)c3nccnc23)C1 (stereo partly drawn) = 6.82 to 7.12

Please fill in: pIC50 reported for `C[C@H]1C[C@@H](NC(=O)Cc2cnn(C)c2)CN(c2cc(F)c(C#N)c3ncccc23)C1` = 6.82 to 7.12

Please fill in: pIC50 reported for `C[C@@H]1CN(c2cnc(C#N)c3ncccc23)C[C@H](CN2CCS(=O)(=O)CC2)O1` = < 6.82

Please fill in: pIC50 reported for `N#Cc1ccc(N2C[C@H](NC(=O)[C@@H]3CCCN3)C[C@H](C(F)(F)F)C2)c2cccnc12` = > 7.12

Please fill in: pIC50 reported for `C[C@@H]1CN(c2cnc(C#N)c3ncccc23)C[C@H](CN2CCN(C)CC2)O1` = > 7.12

Please fill in: pIC50 reported for `C[C@H]1C[C@@H](NC(=O)[C@@H](N)CC(N)=O)CN(c2ccc(C(F)(F)F)c3nccnc23)C1` = > 7.12

Please fill in: pIC50 reported for N#Cc1ncc(N2C[C@@H](C(=O)NCC3(F)CCNCC3)O[C@@H](C(F)(F)F)C2)c2cccnc12 (single isomer, unassigned) = < 6.82

Please fill in: pIC50 reported for N#Cc1ccc(N2C[C@@H](C(F)(F)F)O[C@@H](C(=O)NC[C@]3(F)CCNC3)C2)c2cccnc12 (single isomer, unassigned) = < 6.82
